Reference source for all entries: ChEMBL document CHEMBL1155413

- assay.info: Cytotoxicity against mouse ScGT1 cells at after 5 days by calcein-AM staining
- Type: cell-based
- assay.setup: read-out: LC50
attribute.measured: CC50 at 120 h (µM)
I only need the number, in µM, no unit after it.

Return reported CC50 at 120 h; argument: COC(=O)[C@H](C)NC1=C(Cl)C(=O)C(N[C@@H](Cc2ccccc2)C(=O)OC)=C(Cl)C1=O
2.4

* * *

- assay.info: Cytotoxicity against mouse ScGT1 cells at 1 uM after 5 days by calcein-AM staining
- Format: cell-based
- assay.setup: scgt1, 120 h
attribute.measured: Activity (%)
I only need the number, in %, no unit after it.

Please review the entries below; each comes with its answer.
>  <smiles.data>
COC(=O)[C@H](C)NC1=C(Cl)C(=O)C(N[C@@H](CCCCNC(=O)OC(C)(C)C)C(=O)OC)=C(Cl)C1=O

>  <Activity, %>
40.7

$$$$
>  <smiles.data>
COC(=O)[C@H](C)NC1=C(Br)C(=O)C(N[C@@H](CCCCNC(=O)OC(C)(C)C)C(=O)OC)=C(Br)C1=O

>  <Activity, %>
52.3

$$$$
>  <smiles.data>
CC[C@H](C)[C@@H](NC1=C(Cl)C(=O)C(N[C@@H](C)C(=O)OC)=C(Cl)C1=O)C(=O)OC

>  <Activity, %>
88.2

$$$$

Return reported Activity; argument: COC(=O)[C@H](C)NC1=C(Cl)C(=O)C(N[C@@H](Cc2c[nH]c3ccccc23)C(=O)OC)=C(Cl)C1=O
96
